Could you please report measured Kd for the items listed next?
# ASSAYED TARGET: Recombinant soluble form (amino acids 297-580) of human mesothelin (r-MSLN) (Homo sapiens, UniProt Q13421)
# PROTOCOL DESCRIPTION: BLI
Response body: numeric value in µM, unit text excluded.

-- ask # input binder: 89Zr-DFO-scFv H2a064 (scFv, V domains shown) VH: QVQLVQSGGGLVQPGRSLRLSCAASGFTFDDYAMHWVRQAPGKGLEWVSGISWNSGSIGYADSVKGRFTISRDNAKNSLYLQMNSLRAEDTALYYCAKDIGSSGWYGAFDIWGQGTTVTVSS VL: SYELTQPPSVSVSPGQTARITCSGDALPKHYASWYQQKPGQAPVLLIYKDTERPSGIPERFSGSSSGTTVTLTISGVQAEDEADYYCQSADSSVTVVFGGGTKLTVL ; wanted: its Kd
-- reply 0.0782

-- ask # input binder: Antihuman MSLN His-Tag scFv clone H2a064 (scFv, V domains shown) VH: QVQLVQSGGGLVQPGRSLRLSCAASGFTFDDYAMHWVRQAPGKGLEWVSGISWNSGSIGYADSVKGRFTISRDNAKNSLYLQMNSLRAEDTALYYCAKDIGSSGWYGAFDIWGQGTTVTVSS VL: SYELTQPPSVSVSPGQTARITCSGDALPKHYASWYQQKPGQAPVLLIYKDTERPSGIPERFSGSSSGTTVTLTISGVQAEDEADYYCQSADSSVTVVFGGGTKLTVL ; wanted: its Kd
-- reply 0.0596

-- ask # input binder: DFO-conjugated His-Tag scFv clone H2a064 (scFv, V domains shown) VH: QVQLVQSGGGLVQPGRSLRLSCAASGFTFDDYAMHWVRQAPGKGLEWVSGISWNSGSIGYADSVKGRFTISRDNAKNSLYLQMNSLRAEDTALYYCAKDIGSSGWYGAFDIWGQGTTVTVSS VL: SYELTQPPSVSVSPGQTARITCSGDALPKHYASWYQQKPGQAPVLLIYKDTERPSGIPERFSGSSSGTTVTLTISGVQAEDEADYYCQSADSSVTVVFGGGTKLTVL ; wanted: its Kd
-- reply 0.114

-- ask # input binder: Antihuman MSLN His-Tag scFv clone H1a050 (scFv, V domains shown) VH: EVQLVQSGGGLVQPDRSLRLSCAASGFTFDDYAMHWVRQAPGKGLEWVSGISWNSGSIGYADSVKGRFTISRDNAKNSLYLQMNSLRAEDTALYYCAKDLGSYYGSGSGMDVWGQGTTVTVSS VL: SYELTQPPSVSVSPGQTARITCSGNALPKQYAYWYQQKPGQAPVLMIYKDSERPSGIPERFSGSSSGTTVTLTISGVQAEDEADYYCQSADSSHTYKVFGGGTKLTVL ; wanted: its Kd
-- reply 0.00468

-- ask # input binder: 89Zr-DFO-scFv H1a050 (scFv, V domains shown) VH: EVQLVQSGGGLVQPDRSLRLSCAASGFTFDDYAMHWVRQAPGKGLEWVSGISWNSGSIGYADSVKGRFTISRDNAKNSLYLQMNSLRAEDTALYYCAKDLGSYYGSGSGMDVWGQGTTVTVSS VL: SYELTQPPSVSVSPGQTARITCSGNALPKQYAYWYQQKPGQAPVLMIYKDSERPSGIPERFSGSSSGTTVTLTISGVQAEDEADYYCQSADSSHTYKVFGGGTKLTVL ; wanted: its Kd
-- reply 0.0462

-- ask # input binder: DFO-conjugated His-Tag scFv clone H1a050 (scFv, V domains shown) VH: EVQLVQSGGGLVQPDRSLRLSCAASGFTFDDYAMHWVRQAPGKGLEWVSGISWNSGSIGYADSVKGRFTISRDNAKNSLYLQMNSLRAEDTALYYCAKDLGSYYGSGSGMDVWGQGTTVTVSS VL: SYELTQPPSVSVSPGQTARITCSGNALPKQYAYWYQQKPGQAPVLMIYKDSERPSGIPERFSGSSSGTTVTLTISGVQAEDEADYYCQSADSSHTYKVFGGGTKLTVL ; wanted: its Kd
-- reply 0.00338
